Measured values drawn from PubChem BioAssay (EPA / NIEHS) for this set.

Read-out: Tumor necrosis factor receptor superfamily member 6 (Homo sapiens) (UniProt P25445)
Assay: LTEA_HepaRG_FAS: Life Technologies and Expression Analysis (LTEA) Assay for Fas cell surface death receptor (FAS) using HepaRG (AID 2283447)
Conditions: mRNA level, 48 h; actives raise or lower the signal
Protocol: LTEA_HepaRG is a cell based, multiplexed-readout assay that uses HepaRG, a human liver cell line, with measurements taken at 48 hours after chemical dosing on a 96-well plate.LTEA_HepaRG_FAS is one of 102 assay component(s) measured in the LTEA HepaRG cell culture assay. It is a marker of Cell proliferation, survival, death.Data from the assay component LTEA_HepaRG_FAS was analyzed into 1 endpoint. […]
Activity calls are given as the source filed them. The calls were made as follows: active = hit-call score of the fitted dose curve at least 0.9, where 1 is the maximum; inactive = score below 0.9.
Possible outcomes: active, inactive

{"columns": ["COMPOUND", "ASSIGNED_CATEGORY"],
 "data": [
  ["CCn1nc(Cc2ccccc2)cc1C1CCN(C[C@H]2C[C@H](N(C)[C@@H](C(=O)O)C(C)C)C[C@@H]2c2cccc(F)c2)CC1", "inactive"],
  ["C[C@](N)(Cc1ccc(O)c(O)c1)C(=O)O", "inactive"],
  ["O=C1CCCCCN1", "inactive"],
  ["CC(C)=CCC/C(C)=C/CO", "inactive"],
  ["CCOC(=O)COc1ccc2c(c1)CC(NCC(O)c1cccc(Cl)c1)CC2 (stereo not given)", "inactive"],
  ["CC[C@H](C)C(=O)O[C@H]1C[C@@H](C)C=C2C=C[C@H](C)[C@H](CC[C@@H]3C[C@@H](O)CC(=O)O3)[C@H]21", "inactive"],
  ["Cc1ccc(S(=O)(=O)O)cc1C", "inactive"],
  ["CC(C)c1cccc(C(C)C)c1N1C(=O)c2ccc(O)cc2C1=O", "inactive"],
  ["Cc1[nH]cnc1C[C@H]1CCc2c(C)c3ccccc3n2C1=O", "active"],
  ["COC(=O)c1c(Cl)c(Cl)c(C(=O)OC)c(Cl)c1Cl", "inactive"],
  ["CCOC(=O)c1ccc(C2CCC(NC[C@H](O)COc3ccc(O)c(NS(C)(=O)=O)c3)CC2)cc1 (stereo not given in full)", "inactive"],
  ["CCCC(=O)OCC", "inactive"],
  ["O=C(NS(=O)(=O)/C=C/c1ccccc1)c1ccc(F)cc1Cl", "inactive"],
  ["O=C1OC(=O)C2C3C=CC(C3)C12 (stereo not given)", "inactive"],
  ["CC/C(=C\\C(=N/O)C(N)=O)C(C)[N+](=O)[O-] (stereo not given)", "inactive"],
  ["O=C1CCC(N2C(=O)c3ccccc3C2=O)C(=O)N1 (stereo not given)", "inactive"],
  ["CC(O)CN(CCN(CC(C)O)CC(C)O)CC(C)O (stereo not given)", "inactive"],
  ["O=P(OC(CCl)CCl)(OC(CCl)CCl)OC(CCl)CCl", "active"],
  ["Cn1c(=O)c2c(ncn2C)n(C)c1=O", "inactive"],
  ["CCC(C)(C)C(=O)O[C@H]1C[C@@H](C)C=C2C=C[C@H](C)[C@H](CC[C@@H]3C[C@@H](O)CC(=O)O3)[C@H]21", "inactive"]
]}

* * *

Read-out: flavin-containing dimethylaniline monooxygenases 3 (FMO3), FMO3 (gene 2328)
Assay: LTEA_HepaRG_FMO3: Life Technologies and Expression Analysis (LTEA) Assay for flavin-containing dimethylaniline monooxygenases 3 (FMO3) using HepaRG (AID 2283453)
Conditions: mRNA level, 48 h; actives raise or lower the signal
Calls of active or inactive are those of the source. How the source made its calls: active means hit-call score of the fitted dose curve at least 0.9, where 1 is the maximum; inactive means score below 0.9.
Possible outcomes: active, inactive

{"columns": ["MOLECULE", "ASSIGNED_CATEGORY"],
 "data": [
  ["CC(=O)OC[C@H]1O[C@@](COC(C)=O)(O[C@H]2O[C@H](COC(C)=O)[C@@H](OC(C)=O)[C@H](OC(C)=O)[C@H]2OC(C)=O)[C@@H](OC(C)=O)[C@@H]1OC(C)=O", "inactive"],
  ["O=C(CCCCCCCCc1cccnc1)N1CCC(C=C(c2ccccc2)c2ccccc2)CC1", "active"],
  ["C[C@](N)(Cc1ccc(O)c(O)c1)C(=O)O", "inactive"],
  ["COC(=O)c1ccccc1O", "inactive"],
  ["COc1ccc(/C=C/S(=O)(=O)NC(=O)c2ccc(C)cc2Cl)cc1", "inactive"],
  ["O=C1CCC(N2C(=O)c3ccccc3C2=O)C(=O)N1 (stereo unspecified)", "inactive"]
]}
